test: chemical genetic growth profiling, strain panel (AID 1159580);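 further: tested at 20 µM; growth read once vehicle control cultures reached saturation at 30 °C; 1 = growth at the plate median or of vehicle wells; lower values mean less growth of the strain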; settings: S. cerevisiae deletion strains, growth OD, locus YCL061C, strain MRC1, stronger effect = lower value
Among all 5,500 compounds or so, about 2,000 (36%) were called active. Another 18% or so got no clear call; they are omitted. The list shows a part of the results.
measured-property: normalized growth

compound=CN[C@H]1CC[C@@H](c2ccc(Cl)c(Cl)c2)c2ccccc21 measured_property="normalized growth" result="0.956 (inactive)"
compound="CCCCCC(O)C1C(=O)OC(C)C(O)/C=C/C=C/C=C/C=C/C=C(\\C)C(O)CC(O)CC(O)CC(O)CC(O)CC(O)CC1O (stereo not given)" measured_property="normalized growth" result="0.992 (inactive)"
compound=Cc1ccc(S(=O)(=O)N2CCC(N)=N2)cc1 measured_property="normalized growth" result="1.03 (inactive)"
compound=COC1=CC(=O)C=C(OC)C1=O measured_property="normalized growth" result="1.01 (inactive)"

Lab note: next compound to report on.
C[C@@H]1CCC2[C@](C)(CO)[C@@H](O)CC[C@]2(C)[C@@]12CC[C@@](CO)(CCO)O2 (stereo not given in full) has a reported normalized growth of 0.975 (inactive)
